assay: gradient 5% acetonitrile 3 min, to 50% in 2 min, to 85% in 15 min, held 3 min, 100 µL/min; details: column: Zorbax Extend-C18 2.1 x 50 mm; eluents: water / acetonitrile, 0.1% formic acid
endpoint: RP-LC retention time (s)

(1) CC(=O)N1CCC(n2c(C)nc(C(=O)Nc3ccc4c(c3)OCCO4)c2C)CC1
(2) Cc1ccc(-n2nc(C)c3sc(N4CCCC(C(=O)NC(C)CCc5ccccc5)C4)nc32)cc1 (configuration not stated)
Query: Smaller RP-LC retention time value? Options are 1 and 2 Refer to your chosen entry by its label in the reply.
Reply: 1
(1: 612 s, 2: 1300 s)

(I) O=C(CC(c1ccccc1)c1ccccc1)NCCCn1ncccc1=O
(II) Cn1c(C(=O)N2CCN(c3cccc(Cl)c3)CC2)cc2c(=O)oc3ccccc3c21
Query: Higher RP-LC retention time: I or II ? Refer to your chosen entry by its label in the reply.
Reply: II
(II: 1030 s, I: 702 s)
